experiment: Oral bioavailability in ICR mouse at 25 mg/kg; format: ADME, organism-based; settings: in vivo
measurement_label: bioavailability
Mention the unit after the number when you answer.

Request: Consider the compound shown here: `O=S(=O)(c1ccc(F)cc1)N(CCCN1CCC(c2noc3cc(F)ccc23)CC1)C1COC1` What is its recorded bioavailability?
Response: 6.3%

====

test: Drug concentration in ICR mouse brain at 1 mg/kg, iv measured after 1 hr; format: ADME, organism-based
measurement_label: concentration at 1 h (ng/g)
Give the value, in units of ng/g, as a plain number.

Request: Consider the molecule shown here: `O=S(=O)(c1ccc(F)cc1)N(CCCN1CCC(c2noc3cc(F)ccc23)CC1)C1COC1` What is its recorded concentration at 1 h?
Response: 129
